Target chain: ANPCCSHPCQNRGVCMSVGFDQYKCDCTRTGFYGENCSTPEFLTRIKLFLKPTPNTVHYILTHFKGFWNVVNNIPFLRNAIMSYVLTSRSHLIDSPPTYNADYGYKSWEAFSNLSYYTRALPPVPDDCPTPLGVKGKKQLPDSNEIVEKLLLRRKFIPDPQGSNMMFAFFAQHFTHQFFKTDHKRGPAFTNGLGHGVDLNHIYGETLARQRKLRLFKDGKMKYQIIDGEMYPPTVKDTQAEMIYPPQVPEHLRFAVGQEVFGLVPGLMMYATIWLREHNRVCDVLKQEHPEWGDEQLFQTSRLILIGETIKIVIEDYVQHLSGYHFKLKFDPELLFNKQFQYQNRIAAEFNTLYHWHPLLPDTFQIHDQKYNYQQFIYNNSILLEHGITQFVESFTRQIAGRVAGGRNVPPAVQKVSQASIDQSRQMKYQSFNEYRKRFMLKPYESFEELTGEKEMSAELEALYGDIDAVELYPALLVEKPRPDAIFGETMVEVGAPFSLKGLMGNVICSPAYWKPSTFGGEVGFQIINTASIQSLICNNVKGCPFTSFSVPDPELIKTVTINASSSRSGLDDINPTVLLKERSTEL
Readings of IC50 for the listed molecules
Supply the numeric figure in µM, leaving out any unit text.

Sample answers from the record:
Test Smiles	IC50 (µM)
Cc1cc(C)c2c(n1)sc1c(=O)n(/N=C/c3ccc(Cl)cc3)nnc12	36
Cc1cc(C)c2c(N)c(C(=O)NN=Cc3ccccc3)sc2n1	9.99

# next molecule below
"COc1ccc(/C=N/n2nnc3c(sc4nc(C)cc(C)c43)c2=O)cc1" yielded IC50 of 19

----------
Molecular target: 5-LOX (Homo sapiens, UniProt P09917)
Sequence (P09917 1-674): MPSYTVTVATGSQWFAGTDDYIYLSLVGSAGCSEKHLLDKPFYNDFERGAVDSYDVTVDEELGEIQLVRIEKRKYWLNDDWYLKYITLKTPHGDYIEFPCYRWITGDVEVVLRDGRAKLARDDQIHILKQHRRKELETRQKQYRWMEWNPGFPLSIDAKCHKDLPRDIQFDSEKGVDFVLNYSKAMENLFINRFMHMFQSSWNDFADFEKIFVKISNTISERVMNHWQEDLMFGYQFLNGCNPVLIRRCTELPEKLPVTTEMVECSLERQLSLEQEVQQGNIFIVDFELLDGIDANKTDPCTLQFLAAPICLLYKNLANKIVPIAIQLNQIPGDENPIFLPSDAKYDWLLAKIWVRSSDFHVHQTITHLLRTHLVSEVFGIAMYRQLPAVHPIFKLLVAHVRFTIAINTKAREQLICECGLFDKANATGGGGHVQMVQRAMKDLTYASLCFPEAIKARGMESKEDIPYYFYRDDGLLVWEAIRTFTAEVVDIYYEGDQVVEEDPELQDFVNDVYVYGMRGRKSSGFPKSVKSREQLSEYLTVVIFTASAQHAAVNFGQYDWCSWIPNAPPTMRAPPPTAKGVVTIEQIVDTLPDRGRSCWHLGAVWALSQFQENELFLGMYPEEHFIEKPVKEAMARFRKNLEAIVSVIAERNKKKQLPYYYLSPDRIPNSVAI
Assay: 5-LOX Inhibitor Screening Assay Kit (Cayman)
Type: biochemical
Details: in words
Property Label: 5-LOX IC50 level

Molecule	Test Target	Result
Cc1cc(C)c2c(n1)sc1c(=O)n(/N=C/c3ccc(Cl)cc3)nnc12 [Compound 8b]	5-LOX (Homo sapiens, UniProt P09917)	micromolar level
COc1ccc(/C=N/n2nnc3c(sc4nc(C)cc(C)c43)c2=O)cc1 [Compound 8c]	5-LOX (Homo sapiens, UniProt P09917)	micromolar level
Cc1cc(C)c2c(N)c(C(=O)NN=Cc3ccccc3)sc2n1 [Compound 7a]	5-LOX (Homo sapiens, UniProt P09917)	nanomolar level
Cc1cc(C)c2c(N)c(C(=O)N/N=C/c3ccc(Cl)cc3)sc2n1 [Compound 7b]	5-LOX (Homo sapiens, UniProt P09917)	nanomolar level
